target: human recombinant HDAC2 (Homo sapiens, UniProt Q92769); experiment: HDAC activity assay (fluorogenic HDAC assay kit), HDAC2; conditions: human recombinant HDAC2, 37 °C, 30 min
Sequence (Q92769 whole entry): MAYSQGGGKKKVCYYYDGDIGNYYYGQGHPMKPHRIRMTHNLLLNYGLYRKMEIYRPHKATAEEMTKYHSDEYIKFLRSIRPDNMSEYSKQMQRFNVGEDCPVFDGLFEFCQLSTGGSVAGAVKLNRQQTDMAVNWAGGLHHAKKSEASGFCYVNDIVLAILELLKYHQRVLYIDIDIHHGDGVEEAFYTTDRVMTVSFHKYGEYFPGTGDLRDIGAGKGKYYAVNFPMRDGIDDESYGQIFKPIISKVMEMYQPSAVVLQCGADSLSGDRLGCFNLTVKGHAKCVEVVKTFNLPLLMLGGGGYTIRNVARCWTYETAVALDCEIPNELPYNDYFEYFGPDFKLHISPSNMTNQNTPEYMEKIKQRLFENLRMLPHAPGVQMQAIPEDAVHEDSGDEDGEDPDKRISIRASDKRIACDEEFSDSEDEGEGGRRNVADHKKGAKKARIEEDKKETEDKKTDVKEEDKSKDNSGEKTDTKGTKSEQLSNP
MEASUREMENT_TYPE: pIC50
pIC50 (log units): -log10 of the concentration in mol/L.

// query Quote pIC50 reported for `C[C@H]1COc2c(N3CCN(C)CC3)c(F)cc3c(=O)c(C(=O)OCc4cn(CCCCCCCC(=O)NO)nn4)cn1c23` please.
// result 7.19

// query Quote pIC50 reported for `C[C@H]1COc2c(N3CCN(C)CC3)c(F)cc3c(=O)c(C(=O)OCc4cn(CCCCCC(=O)NO)nn4)cn1c23` please.
// result 6.87

// query Quote pIC50 reported for `C[C@H]1COc2c(N3CCN(C)CC3)c(F)cc3c(=O)c(C(=O)NCc4cn(CCCCCCC(=O)NO)nn4)cn1c23` please.
// result 7.39

// query Quote pIC50 reported for `C[C@H]1COc2c(N3CCN(C)CC3)c(F)cc3c(=O)c(C(=O)NCc4cn(CCCCCC(=O)O)nn4)cn1c23` please.
// result 5.14

###

target: human recombinant HDAC2 (Homo sapiens); test: HDAC activity assay (fluorogenic HDAC assay kit), HDAC2; conditions: human recombinant HDAC2, 37 °C, 30 min
Field: pIC50. Provide a value for each of the compounds that follow.
pIC50 (log units): -log10 of the concentration in mol/L.

// query Quote pIC50 reported for `C[C@H]1COc2c(N3CCN(C)CC3)c(F)cc3c(=O)c(C(=O)OCc4cn(CCCCCCC(=O)NO)nn4)cn1c23` please.
// result 7.09

// query Quote pIC50 reported for `C[C@H]1COc2c(N3CCN(C)CC3)c(F)cc3c(=O)c(C(=O)NCc4cn(CCCCCCCC(=O)O)nn4)cn1c23` please.
// result 5.16

// query Quote pIC50 reported for `C[C@H]1COc2c(N3CCN(C)CC3)c(F)cc3c(=O)c(C(=O)OCc4cn(CCCCCCC(=O)O)nn4)cn1c23` please.
// result 5.21

// query Quote pIC50 reported for `C[C@H]1COc2c(N3CCN(C)CC3)c(F)cc3c(=O)c(C(=O)NCc4cn(CCCCCCC(=O)O)nn4)cn1c23` please.
// result 5.34

// query Quote pIC50 reported for `C[C@H]1COc2c(N3CCN(C)CC3)c(F)cc3c(=O)c(C(=O)OCc4cn(CCCCCCCC(=O)O)nn4)cn1c23` please.
// result 5.10

// query Quote pIC50 reported for `C[C@H]1COc2c(N3CCN(C)CC3)c(F)cc3c(=O)c(C(=O)NCc4cn(CCCCCCCC(=O)NO)nn4)cn1c23` please.
// result 7.12

// query Quote pIC50 reported for `C[C@H]1COc2c(N3CCN(C)CC3)c(F)cc3c(=O)c(C(=O)OCc4cn(CCCCCC(=O)O)nn4)cn1c23` please.
// result 4.98

###

system: prostate cancer cells PC-3; assay: Antiproliferative activity, CCK-8 assay, PC-3; assay type: cell-based; settings: Homo sapiens; CCK-8, 72 hours; mean ± SD
MEASUREMENT_TYPE: pIC50
pIC50 (log units): -log10 of the concentration in mol/L.

// query Quote pIC50 reported for C[C@H]1COc2c(N3CCN(C)CC3)c(F)cc3c(=O)c(C(=O)NCc4cn(CCCCCCCC(=O)O)nn4)cn1c23 [Compound 7c] please.
// result 4.87

// query Quote pIC50 reported for C[C@H]1COc2c(N3CCN(C)CC3)c(F)cc3c(=O)c(C(=O)NCc4cn(CCCCCCC(=O)O)nn4)cn1c23 [Compound 7b] please.
// result 4.95

// query Quote pIC50 reported for C[C@H]1COc2c(N3CCN(C)CC3)c(F)cc3c(=O)c(C(=O)OCc4cn(CCCCCC(=O)O)nn4)cn1c23 [Compound 6a] please.
// result 4.78

// query Quote pIC50 reported for C[C@H]1COc2c(N3CCN(C)CC3)c(F)cc3c(=O)c(C(=O)OCc4cn(CCCCCC(=O)NO)nn4)cn1c23 [Compound 8a] please.
// result 4.89

// query Quote pIC50 reported for C[C@H]1COc2c(N3CCN(C)CC3)c(F)cc3c(=O)c(C(=O)NCc4cn(CCCCCC(=O)O)nn4)cn1c23 [Compound 7a] please.
// result 4.80

###

system: human cervical carcinoma cells HeLa; test: Antiproliferative activity, CCK-8 assay, HeLa; assay type: cell-based; settings: CCK-8, 72 hours, mean ± SD, read-out: IC50 HeLa
MEASUREMENT_TYPE: IC50 (µM)
Use µM as the unit, but write only the number.

// query Quote IC50 reported for `C[C@H]1COc2c(N3CCN(C)CC3)c(F)cc3c(=O)c(C(=O)NCc4cn(CCCCCCCC(=O)O)nn4)cn1c23` please.
// result 10.6

// query Quote IC50 reported for C[C@H]1COc2c(N3CCN(C)CC3)c(F)cc3c(=O)c(C(=O)O)cn1c23 [Levofloxacin, levofloxacin, reference compound] please.
// result 71.1

// query Quote IC50 reported for `C[C@H]1COc2c(N3CCN(C)CC3)c(F)cc3c(=O)c(C(=O)NCc4cn(CCCCCC(=O)O)nn4)cn1c23` please.
// result 13.5

###

Test system: human cervical carcinoma cells HeLa
Test: Antiproliferative activity, CCK-8 assay, HeLa
Assay type: cell-based
Details: CCK-8, 72 hours, mean ± SD, read-out: IC50 HeLa
Protocol: Antitumor activities in vitro of synthetic compounds were measured using CCK-8 Assay Kit (BPS Bioscience, CA) according to the manufacturer's protocol. Cells were plated into 96-well plates with appropriate test compounds for 72 hours. Control cells were treated with serum free medium. […] The IC50 values were calculated according to the dose-dependent curves (Origin software). IC50 values were determined using nonlinear regression analysis.
Field: IC50. Provide a value for each of the molecules that follow.
Mention the unit after the number when you answer.

// query Quote IC50 reported for C[C@H]1COc2c(N3CCN(C)CC3)c(F)cc3c(=O)c(C(=O)OCc4cn(CCCCCCCC(=O)NO)nn4)cn1c23 [Compound 8c] please.
// result 6.8 µM

// query Quote IC50 reported for C[C@H]1COc2c(N3CCN(C)CC3)c(F)cc3c(=O)c(C(=O)NCc4cn(CCCCCCC(=O)NO)nn4)cn1c23 [Compound 9b] please.
// result 1.1 µM

// query Quote IC50 reported for C[C@H]1COc2c(N3CCN(C)CC3)c(F)cc3c(=O)c(C(=O)OCc4cn(CCCCCC(=O)NO)nn4)cn1c23 [Compound 8a] please.
// result 7.7 µM

// query Quote IC50 reported for C[C@H]1COc2c(N3CCN(C)CC3)c(F)cc3c(=O)c(C(=O)OCc4cn(CCCCCC(=O)O)nn4)cn1c23 [Compound 6a] please.
// result 12.3 µM

// query Quote IC50 reported for C[C@H]1COc2c(N3CCN(C)CC3)c(F)cc3c(=O)c(C(=O)NCc4cn(CCCCCCC(=O)O)nn4)cn1c23 [Compound 7b] please.
// result 8.4 µM

// query Quote IC50 reported for C[C@H]1COc2c(N3CCN(C)CC3)c(F)cc3c(=O)c(C(=O)NCc4cn(CCCCCCCC(=O)NO)nn4)cn1c23 [Compound 9c] please.
// result 3.5 µM

###

biological target: human recombinant HDAC1 (Homo sapiens, UniProt Q13547); assay: HDAC activity assay (fluorogenic HDAC assay kit), HDAC1; settings: human recombinant HDAC1, 37 °C, 30 min
Sequence (Q13547 whole entry): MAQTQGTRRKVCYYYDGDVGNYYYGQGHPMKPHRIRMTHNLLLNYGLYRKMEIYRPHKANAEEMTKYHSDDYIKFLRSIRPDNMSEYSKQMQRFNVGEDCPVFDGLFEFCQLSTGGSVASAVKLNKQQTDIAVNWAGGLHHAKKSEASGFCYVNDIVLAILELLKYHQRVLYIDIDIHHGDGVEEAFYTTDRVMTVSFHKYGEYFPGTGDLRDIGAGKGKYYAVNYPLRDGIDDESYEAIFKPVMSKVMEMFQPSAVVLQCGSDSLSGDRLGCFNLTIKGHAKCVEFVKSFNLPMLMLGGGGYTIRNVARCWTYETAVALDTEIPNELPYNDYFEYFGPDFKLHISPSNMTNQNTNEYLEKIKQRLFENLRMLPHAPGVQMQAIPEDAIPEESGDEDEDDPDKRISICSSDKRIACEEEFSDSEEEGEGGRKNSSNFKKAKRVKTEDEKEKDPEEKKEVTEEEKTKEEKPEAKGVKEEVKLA
Field: IC50. Provide a value for each of the molecules that follow.
Use nM as the unit, but write only the number.

// query Look up and report measured IC50 (human recombinant HDAC1 (Homo sapiens, UniProt Q13547)) for the following molecule: `C[C@H]1COc2c(N3CCN(C)CC3)c(F)cc3c(=O)c(C(=O)OCc4cn(CCCCCC(=O)O)nn4)cn1c23`
// result 8200

// query Look up and report measured IC50 (human recombinant HDAC1 (Homo sapiens, UniProt Q13547)) for the following molecule: `C[C@H]1COc2c(N3CCN(C)CC3)c(F)cc3c(=O)c(C(=O)NCc4cn(CCCCCCC(=O)NO)nn4)cn1c23`
// result 29

// query Look up and report measured IC50 (human recombinant HDAC1 (Homo sapiens, UniProt Q13547)) for the following molecule: `C[C@H]1COc2c(N3CCN(C)CC3)c(F)cc3c(=O)c(C(=O)OCc4cn(CCCCCCC(=O)O)nn4)cn1c23`
// result 5700

// query Look up and report measured IC50 (human recombinant HDAC1 (Homo sapiens, UniProt Q13547)) for the following molecule: `C[C@H]1COc2c(N3CCN(C)CC3)c(F)cc3c(=O)c(C(=O)NCc4cn(CCCCCCCC(=O)O)nn4)cn1c23`
// result 3800

// query Look up and report measured IC50 (human recombinant HDAC1 (Homo sapiens, UniProt Q13547)) for the following molecule: `C[C@H]1COc2c(N3CCN(C)CC3)c(F)cc3c(=O)c(C(=O)OCc4cn(CCCCCCCC(=O)NO)nn4)cn1c23`
// result 104

// query Look up and report measured IC50 (human recombinant HDAC1 (Homo sapiens, UniProt Q13547)) for the following molecule: `C[C@H]1COc2c(N3CCN(C)CC3)c(F)cc3c(=O)c(C(=O)OCc4cn(CCCCCCCC(=O)O)nn4)cn1c23`
// result 6900

// query Look up and report measured IC50 (human recombinant HDAC1 (Homo sapiens, UniProt Q13547)) for the following molecule: `C[C@H]1COc2c(N3CCN(C)CC3)c(F)cc3c(=O)c(C(=O)NCc4cn(CCCCCCCC(=O)NO)nn4)cn1c23`
// result 38

// query Look up and report measured IC50 (human recombinant HDAC1 (Homo sapiens, UniProt Q13547)) for the following molecule: `C[C@H]1COc2c(N3CCN(C)CC3)c(F)cc3c(=O)c(C(=O)NCc4cn(CCCCCCC(=O)O)nn4)cn1c23`
// result 2100

// query Look up and report measured IC50 (human recombinant HDAC1 (Homo sapiens, UniProt Q13547)) for the following molecule: `C[C@H]1COc2c(N3CCN(C)CC3)c(F)cc3c(=O)c(C(=O)NCc4cn(CCCCCC(=O)NO)nn4)cn1c23`
// result 73

// query Look up and report measured IC50 (human recombinant HDAC1 (Homo sapiens, UniProt Q13547)) for the following molecule: `C[C@H]1COc2c(N3CCN(C)CC3)c(F)cc3c(=O)c(C(=O)OCc4cn(CCCCCCC(=O)NO)nn4)cn1c23`
// result 67

// query Look up and report measured IC50 (human recombinant HDAC1 (Homo sapiens, UniProt Q13547)) for the following molecule: `C[C@H]1COc2c(N3CCN(C)CC3)c(F)cc3c(=O)c(C(=O)OCc4cn(CCCCCC(=O)NO)nn4)cn1c23`
// result 75

// query Look up and report measured IC50 (human recombinant HDAC1 (Homo sapiens, UniProt Q13547)) for the following molecule: `C[C@H]1COc2c(N3CCN(C)CC3)c(F)cc3c(=O)c(C(=O)NCc4cn(CCCCCC(=O)O)nn4)cn1c23`
// result 4600
